# Species on record: Rattus norvegicus
# run-description: Open TG-GATES - Regimen: Daily Repeat
# Type: toxicity, organism-based, Sprague-Dawley
# Parameters: regimen Daily Repeat, gender Male, age 6 weeks
# run-parameters: in vivo, po, 100 mg/kg, […], tissue Blood, route gavage, dose level Low, time 28 day
measure: RBC (x10_4/ul)
Give the value in x10_4/ul but do not write x10_4/ul after it.

The recorded RBC for COc1ccc2[nH]c([S+]([O-])Cc3ncc(C)c(OC)c3C)nc2c1 (stereo not given) is 809.8

The recorded RBC for NC(N)=Nc1nc(CSCCC(N)=NS(N)(=O)=O)cs1 is 796

The recorded RBC for CCOc1ccc(NC(=O)CC(C)O)cc1 (stereo not given) is 802.8

The recorded RBC for COC1=CC(=O)C[C@@H](C)[C@]12Oc1c(Cl)c(OC)cc(OC)c1C2=O is 772

The recorded RBC for CCOC(=O)CCC(=O)O[C@H]1[C@H](O[C@@H]2[C@@H](C)[C@H](O[C@H]3C[C@@](C)(OC)[C@@H](O)[C@H](C)O3)[C@@H](C)C(=O)O[C@H](CC)[C@@](C)(O)[C@H](O)[C@@H](C)C(=O)[C@H](C)C[C@@]2(C)O)O[C@H](C)C[C@@H]1N(C)C [ERYTHROMYCIN ETHYLSUCCINATE] is 772.2

###

# Species: Rattus norvegicus
# run-description: Open TG-GATES - Regimen: Daily Repeat
# Type: toxicity, organism-based, Sprague-Dawley
# Parameters: regimen Daily Repeat, gender Male, age 6 weeks
# run-parameters: in vivo, po, 0 mg/kg, […], tissue Blood, route gavage, dose level Control, time 7 day
Exercise: for every item that follows, state its recorded MCH.
Give the value in pg but do not write pg after it.

The recorded MCH for CCOC(=O)CCC(=O)O[C@H]1[C@H](O[C@@H]2[C@@H](C)[C@H](O[C@H]3C[C@@](C)(OC)[C@@H](O)[C@H](C)O3)[C@@H](C)C(=O)O[C@H](CC)[C@@](C)(O)[C@H](O)[C@@H](C)C(=O)[C@H](C)C[C@@]2(C)O)O[C@H](C)C[C@@H]1N(C)C [ERYTHROMYCIN ETHYLSUCCINATE] is 21

The recorded MCH for NNC(=O)c1ccncc1 is 21.4

The recorded MCH for COc1ccc2[nH]c([S+]([O-])Cc3ncc(C)c(OC)c3C)nc2c1 (stereo not drawn) is 20.8

###

Exercise: for every item that follows, state its recorded Ht.
# Species on record: Rattus norvegicus
# run-description: Open TG-GATES - Regimen: Single
# Format: toxicity, organism-based, Sprague-Dawley
# Set-up: regimen Single, gender Male, age 6 weeks
# run-parameters: in vivo, po, 10 mg/kg, 6 h, tissue Blood, route gavage, dose level Low
Give the value in % but do not write % after it.

The recorded Ht for CC1=C(/C=C/C(C)=C/C=C/C(C)=C/CO)C(C)(C)CCC1 is 39.4

The recorded Ht for CN(C)CCN(Cc1cccs1)c1ccccn1 is 39

The recorded Ht for CC(C)OC(=O)C(C)(C)Oc1ccc(C(=O)c2ccc(Cl)cc2)cc1 [FENOFIBRATE] is 39.7

The recorded Ht for CN(C)CCCN1c2ccccc2CCc2ccc(Cl)cc21 is 43.7

The recorded Ht for CN(C)CCCN1c2ccccc2CCc2ccccc21 is 42.9

###

# Species on record: Rattus norvegicus
# run-description: Open TG-GATES - Regimen: Single
# Assay type: toxicity, organism-based, Sprague-Dawley
# Design: regimen Single, gender Male, age 6 weeks
# run-parameters: in vivo, po, 100 mg/kg, 3 h, tissue Plasma, route gavage, dose level High
measure: K (meq/L)
Give the value in meq/L but do not write meq/L after it.

The recorded K for CN(C)CCCN1c2ccccc2CCc2ccccc21 [IMIPRAMINE] is 3.9

The recorded K for CN(C)CCN(Cc1cccs1)c1ccccn1 is 4.3

The recorded K for CN(C)CCCN1c2ccccc2CCc2ccc(Cl)cc21 [CLOMIPRAMINE] is 3.9

The recorded K for CC1=C(/C=C/C(C)=C/C=C/C(C)=C/CO)C(C)(C)CCC1 [RETINOL] is 4

###

# Species on record: Rattus norvegicus
# run-description: Open TG-GATES - Regimen: Single
# Type: toxicity, organism-based, Sprague-Dawley
# Design: regimen Single, gender Male, age 6 weeks
# run-parameters: in vivo, po, 1000 mg/kg, 24 h, tissue Kidney, route gavage, dose level High
Exercise: for every item that follows, state its recorded KIDNEY_R.
Answer format reminder: number followed by unit.

The recorded KIDNEY_R for CC(C)OC(=O)C(C)(C)Oc1ccc(C(=O)c2ccc(Cl)cc2)cc1 [FENOFIBRATE] is 0.8 g

The recorded KIDNEY_R for COC1=CC(=O)C[C@@H](C)[C@]12Oc1c(Cl)c(OC)cc(OC)c1C2=O is 1 g

The recorded KIDNEY_R for CCOC(=O)CCC(=O)O[C@H]1[C@H](O[C@@H]2[C@@H](C)[C@H](O[C@H]3C[C@@](C)(OC)[C@@H](O)[C@H](C)O3)[C@@H](C)C(=O)O[C@H](CC)[C@@](C)(O)[C@H](O)[C@@H](C)C(=O)[C@H](C)C[C@@]2(C)O)O[C@H](C)C[C@@H]1N(C)C [ERYTHROMYCIN ETHYLSUCCINATE] is 1 g

The recorded KIDNEY_R for NC(N)=Nc1nc(CSCCC(N)=NS(N)(=O)=O)cs1 is 1 g

The recorded KIDNEY_R for COc1ccc2[nH]c([S+]([O-])Cc3ncc(C)c(OC)c3C)nc2c1 (stereo not given) is 1 g

###

# Organism: Rattus norvegicus
# run-description: Open TG-GATES - Regimen: Daily Repeat
# Assay type: toxicity, organism-based, Sprague-Dawley
# Parameters: regimen Daily Repeat, gender Male, age 6 weeks
# run-parameters: in vivo, po, 1000 mg/kg, […], tissue Plasma, route gavage, dose level High, time 28 day
measure: TC
Answer format reminder: number followed by unit.

The recorded TC for NC(N)=Nc1nc(CSCCC(N)=NS(N)(=O)=O)cs1 is 62.4 mg/dL

The recorded TC for CCOC(=O)CCC(=O)O[C@H]1[C@H](O[C@@H]2[C@@H](C)[C@H](O[C@H]3C[C@@](C)(OC)[C@@H](O)[C@H](C)O3)[C@@H](C)C(=O)O[C@H](CC)[C@@](C)(O)[C@H](O)[C@@H](C)C(=O)[C@H](C)C[C@@]2(C)O)O[C@H](C)C[C@@H]1N(C)C [ERYTHROMYCIN ETHYLSUCCINATE] is 75.2 mg/dL

The recorded TC for COc1ccc2[nH]c([S+]([O-])Cc3ncc(C)c(OC)c3C)nc2c1 (stereo unspecified) is 102.4 mg/dL

The recorded TC for CC(C)OC(=O)C(C)(C)Oc1ccc(C(=O)c2ccc(Cl)cc2)cc1 [FENOFIBRATE] is 62.4 mg/dL

The recorded TC for COC1=CC(=O)C[C@@H](C)[C@]12Oc1c(Cl)c(OC)cc(OC)c1C2=O is 88.6 mg/dL

The recorded TC for CCOc1ccc(NC(=O)CC(C)O)cc1 (stereo unspecified) is 71.2 mg/dL

###

# Species on record: Rattus norvegicus
# run-description: Open TG-GATES - Regimen: Daily Repeat
# Assay type: toxicity, organism-based, Sprague-Dawley
# Set-up: regimen Daily Repeat, gender Male, age 6 weeks
# run-parameters: in vivo, po, 0 mg/kg, […], tissue Plasma, route gavage, dose level Control, time 14 day
measure: Na
Answer format reminder: number followed by unit.

The recorded Na for NC(N)=Nc1nc(CSCCC(N)=NS(N)(=O)=O)cs1 [FAMOTIDINE] is 140.4 meq/L

The recorded Na for CCOC(=O)CCC(=O)O[C@H]1[C@H](O[C@@H]2[C@@H](C)[C@H](O[C@H]3C[C@@](C)(OC)[C@@H](O)[C@H](C)O3)[C@@H](C)C(=O)O[C@H](CC)[C@@](C)(O)[C@H](O)[C@@H](C)C(=O)[C@H](C)C[C@@]2(C)O)O[C@H](C)C[C@@H]1N(C)C [ERYTHROMYCIN ETHYLSUCCINATE] is 141.4 meq/L

The recorded Na for CN1C(=O)CN=C(c2ccccc2)c2cc(Cl)ccc21 [DIAZEPAM] is 141.1 meq/L

###

Exercise: for every item that follows, state its recorded MCV.
# Species: Rattus norvegicus
# run-description: Open TG-GATES - Regimen: Single
# Type: toxicity, organism-based, Sprague-Dawley
# Design: regimen Single, gender Male, age 6 weeks
# run-parameters: in vivo, po, 300 mg/kg, 3 h, tissue Blood, route gavage, dose level Middle
Give the value in fL but do not write fL after it.

The recorded MCV for CCOC(=O)CCC(=O)O[C@H]1[C@H](O[C@@H]2[C@@H](C)[C@H](O[C@H]3C[C@@](C)(OC)[C@@H](O)[C@H](C)O3)[C@@H](C)C(=O)O[C@H](CC)[C@@](C)(O)[C@H](O)[C@@H](C)C(=O)[C@H](C)C[C@@]2(C)O)O[C@H](C)C[C@@H]1N(C)C [ERYTHROMYCIN ETHYLSUCCINATE] is 63.8

The recorded MCV for COC1=CC(=O)C[C@@H](C)[C@]12Oc1c(Cl)c(OC)cc(OC)c1C2=O is 63.1

The recorded MCV for NC(N)=Nc1nc(CSCCC(N)=NS(N)(=O)=O)cs1 is 63.4

The recorded MCV for COc1ccc2[nH]c([S+]([O-])Cc3ncc(C)c(OC)c3C)nc2c1 (centres undefined) is 62.3

Data origin, for the record: ChEMBL document CHEMBL3885861
